test system: K4 kissing-loop RNA reporter; experiment: apparent KD of K4 kissing-loop reporter; higher = weaker reporter binding; details: Eterna round: R107; input ligand: tryptophan 2.4 mM;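 also: bound reporter read as fluorescence of individual clusters on recovered sequencing chips by microscopy, with normalized cluster intensities fitted with a binding model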
readout: apparent KD of K4 kissing-loop reporter (nM)
Express the result in nM but write the number alone.

- sequence.code: "UGUAUCAUCUAAGGAUAUAUCAUGUGAUGCACCGAGUAUCGCAUCAAUUCUGAGUGAUGUUCAGGUAUAGAAGGUAGAUGAUGCA [FMN B SS t2]"
  apparent KD of K4 kissing-loop reporter / nM: 228
- sequence.code: "UGAUACCAGACUGAUACCAGCAGUGAUGUUGCUGAAAAUAAUAAAUGAGUCAAAGACUCGGGCCCUUGGCAGCAGUCUGGUAUCU [TheoBX 8 #SwitchBubble #StaticStem]"
  apparent KD of K4 kissing-loop reporter / nM: 95.9
- sequence.code: "GCAGUGAUGUUGCACGAGUAGGGUAGAGUGCGAGGACCGGUACGGCCGCCACUCGUAUGGAACUCGCUAAUUUAUGGAAUGGUGA [whbob_SS_tryp_A]"
  apparent KD of K4 kissing-loop reporter / nM: 575
- sequence.code: "AGACCACAAAGUGGUCAGUGUUCGCUGCAGCGAGGACCGGUACGGCCGCCACUCGCGAGUGAUGUUCGCGAGCGCAGCGAACACA [Omei KL Tryp A Exc A v5]"
  apparent KD of K4 kissing-loop reporter / nM: 114

Query string: Look up apparent KD of K4 kissing-loop reporter for this sequence: AAUAUAUAGUGAAGGAGCGCGUAUUGCAGUGAUGUUGCUAAGUUAUUAUUAUCUAUUUUUACGCAGGUAGGUCGCACUAUAUAUA [JR_SSArginiB_Sub014]
Result string: 193

Query string: Entry UUUCCAGAUAAGUGGGAACACUCCAUAACAGAGGAUAUCAGAGCGCUGAGAAGGCUGUUUUACAGUGAUGUUGUAAGUGUGGAGU [FMN A SS t2] please
Result string: 253

Query string: For AUAGAAAAGUGGCACCCUCACUAAAACAGUCGAGGACCGGUACGGCCGCCACUCGCGCGCUUUAGUGAUGUUAAAGCUAUGCAAA then?
Result string: 105

Query string: What about this sequence? GCAACAUUGGUAGGAUAUCAUUCUGAGUGAUGUUCAGGGUUCAGCUAACGAAAGUUAGUUGUACCAUGAGAAGGACUAAUGUUGC [Omei KL FMN B SS A v3]
Result string: 915

Query string: // same read-out, input: AAAUAGAUCAGUCACCCAGUGAUGUUGGAAGGAGCGUGCGAAAGCACAGGUAGGUCGCCAGAAUAAAAUUGGCUGAUCAAAAUAA
Result string: 149

Query string: // query: AUACACGUUGCGGCCGCCACUUCGAUUAGUGAUGUUAGGUGUAAGCAGGCGCUGCAUUAAUGUGAAAGGACCGGGCAGAGUAAGC [theeternabot_exclusion_KL_Trp_B_39]
Result string: 148

Query string: Same question for GAGAUAGCGACGGCCGCCACUAGUGAUGUUAGUGCUGGUAGAUAGAUACUGGAACAGAAAUGACGUAGGACCGGGUCAGAUAGAG [#01 K4 Tryptophan B Exclusion] please.
Result string: 247

Query string: Request: CUAUGGAAACAUAGUGAUCGGGAAACCGAUACCAGUAUGGAAACAUACCCUUGGCAGCGGAAUGAUCAAACGGAGUGAUGUUCCG [Theophylline A K4 21]
Result string: 288

These data points were gathered from the supplement of paper PMC9170038.
